Assayed System: human recombinant OX2 (hOX2) receptor (Homo sapiens)
Assay Overview: IP-1 accumulation assay (IP-One HTRF) in hOX2-CHO cells
Conditions: 60 min at 37° C., mean of at least two independent experiments, read-out: EC50_OX2R Category
pEC50: −log10 of the molar value.
Measurement Label: pEC50

Task: Please report the recorded pEC50 for C[C@@H]1C[C@@]2(COCC(=O)N2)[C@H](CO[C@H]2CC[C@@H](c3ccccc3)CC2)N1C(=O)C12CC(C1)C2 .
Result: 5.00 to 6.00

Task: Please report the recorded pEC50 for C[C@@H]1C[C@@]2(COCC(=O)N2)[C@H](Cc2cccc(-c3cc(F)cc(F)c3)c2F)N1C(=O)C1CC1F (single isomer, unassigned) [Example 92] .
Result: 6.00 to 7.00

Task: Please report the recorded pEC50 for C[C@@H]1C[C@@]2(COCC(=O)N2)[C@H](Cc2cccc(-c3cc(F)cc(F)c3)c2F)N1C(=O)OCC(F)F .
Result: 6.00 to 7.00

###

Consider the following compounds; for each one, report its pEC50.
Assayed System: human recombinant OX2 (hOX2) receptor (Homo sapiens)
Sequence (O43614 1-444): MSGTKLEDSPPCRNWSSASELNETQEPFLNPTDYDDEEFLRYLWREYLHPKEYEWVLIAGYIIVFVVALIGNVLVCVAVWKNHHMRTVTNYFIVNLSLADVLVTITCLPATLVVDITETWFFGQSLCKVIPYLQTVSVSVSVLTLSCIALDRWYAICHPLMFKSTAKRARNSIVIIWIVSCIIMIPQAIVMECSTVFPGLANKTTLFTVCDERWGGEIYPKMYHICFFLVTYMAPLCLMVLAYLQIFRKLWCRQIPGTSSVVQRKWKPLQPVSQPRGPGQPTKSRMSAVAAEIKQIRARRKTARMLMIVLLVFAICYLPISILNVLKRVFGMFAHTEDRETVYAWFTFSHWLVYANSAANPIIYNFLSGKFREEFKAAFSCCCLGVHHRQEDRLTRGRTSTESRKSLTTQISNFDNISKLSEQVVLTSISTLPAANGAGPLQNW
Assay Overview: IP-1 accumulation assay (IP-One HTRF) in hOX2-CHO cells
Conditions: 60 min at 37° C., mean of at least two independent experiments, read-out: EC50_OX2R Category
pEC50: −log10 of the molar value.

Task: Please report the recorded pEC50 for O=C1NC2(CCCN(CC(F)(F)F)C2CO[C@H]2CC[C@@H](c3ccccc3)CC2)CCO1 (mixture of isomers) .
Result: < 5.00

Task: Please report the recorded pEC50 for C[C@@H]1C[C@@]2(COCC(=O)N2)[C@H](CO[C@H]2CC[C@@H](c3ccccc3)CC2)N1C(=O)C(C)(C)O .
Result: 5.00 to 6.00

Task: Please report the recorded pEC50 for CN1CCC2(CCCN(C(=O)OCC(F)F)C2CO[C@H]2CC[C@@H](c3ccccc3)CC2)NC1=O (mixture of isomers) .
Result: < 5.00

Task: Please report the recorded pEC50 for COC(=O)N1CCC[C@@]2(CCOC(=O)N2)[C@@H]1Cc1cccc(-c2ccccc2)c1 (single isomer, unassigned) .
Result: < 5.00

Task: Please report the recorded pEC50 for CCNC(=O)N1CCCC2(COCC(=O)N2)C1COC1CCN(c2ncc(F)cn2)CC1 (racemic) .
Result: 6.00 to 7.00

Task: Please report the recorded pEC50 for CN1CC(=O)NC2(CCCN(C(=O)OCC(F)F)C2CO[C@H]2CC[C@@H](c3ccccc3)CC2)C1 (mixture of isomers) .
Result: 6.00 to 7.00

Task: Please report the recorded pEC50 for C[C@@H]1C[C@@]2(COCC(=O)N2)[C@H](Cc2cccc(-c3cc(F)cc(F)c3)c2F)N1C(=O)CC(F)(F)F .
Result: 6.00 to 7.00

Reference source: patent US20240254143A1
